Listing: MIC of selected substances
Test system: E. coli (KCTC 1682)
Assay type: cell-based, Escherichia coli
Recorded Conditions: 2.5 mM of CaCl2
Where no end group is shown, it is not given here.
Express the reported value numerically, then name its unit.

>>> result("KKWFKKILKWL-NH2 [BP6]")
"16 µM"

Look up and report measured MIC for this entry: KKWWKKILKYL-NH2 [BP5]
8 µM

Check the records and state MIC for KKLWKKILKWL-NH2 [BP8]
16 µM

Give recorded MIC. KKLFKKIWKWL-NH2 [BP11]
16 µM

Note down MIC recorded for KKWFKKWLKWL-NH2 [BP13]
16 µM
